- TARGET OF ASSAY: SpsB (Staphylococcus aureus signal peptidase) (Staphylococcus aureus, UniProt P0A070)
- Construct: This assay uses a suspension of Staphylococcus aureus cells as a source of SpsB instead of recombinant SpsB protein; endogenous in cells; host or cells: S. aureus, USA300 background, overexpressing SpsB (whole-cell suspension from frozen pellets)
- Sequence (P0A070 whole entry): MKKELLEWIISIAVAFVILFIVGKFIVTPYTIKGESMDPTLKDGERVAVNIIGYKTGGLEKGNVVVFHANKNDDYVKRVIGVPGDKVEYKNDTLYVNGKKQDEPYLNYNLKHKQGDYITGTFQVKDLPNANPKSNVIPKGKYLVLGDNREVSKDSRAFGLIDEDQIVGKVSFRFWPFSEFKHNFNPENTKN
- PROCEDURE TEXT: cell-based
- Assay type: biochemical
- STATED CONDITIONS: SpsB IC50, whole-cell S. aureus (USA300 background, overexpressing SpsB) as SpsB source; fluorogenic peptide substrate, kinetic read 30 min
Field: IC50. Provide a value for each of the compounds that follow.
The answer is to be given in nM; state only the numeric part.

State its IC50: CCCCCCCCc1cccc(C(=O)N[C@@H](CCCCN)C(=O)N(C)[C@@H]2C(=O)N[C@@H](C)C(=O)N[C@H](C(=O)NCC#N)Cc3ccc(OCCN)c(c3)-c3cc2ccc3OCCN)c1
1.6

State its IC50: CCCCCCc1ccc(NC(=O)N[C@@H](CCN)C(=O)N(C)[C@@H]2C(=O)N[C@@H](C)C(=O)N[C@H](C(=O)NCC#N)Cc3ccc(OCCN)c(c3)-c3cc2ccc3OCCN)c(C)c1
0.88

State its IC50: Cc1nc(-c2ccc(C(F)(F)F)cc2)ncc1C(=O)N[C@@H](CCN)C(=O)N(C)[C@@H]1C(=O)N[C@@H](C)C(=O)N[C@H](C(=O)NCC#N)Cc2ccc(OCCN)c(c2)-c2cc1ccc2OCCN
0.72

State its IC50: CCCCCCc1ccc(C(=O)N2C[C@@H](N)CC2C(=O)N(C)[C@@H]2C(=O)N[C@@H](C)C(=O)N[C@H](C(=O)NCC#N)Cc3ccc(OCCN)c(c3)-c3cc2ccc3OCCN)c(C)c1 (some centres unmarked)
0.92

State its IC50: CCCCCCCCCCCC(=O)N[C@@H](C[C@@H]1CCCN1)C(=O)N(C)[C@@H]1C(=O)N[C@@H](C)C(=O)N[C@H](C(=O)NCC#N)Cc2ccc(OCCN)c(c2)-c2cc1ccc2OCCN
1

State its IC50: Cc1nc(Oc2ccc(CC(C)C)cc2)ncc1C(=O)N[C@@H](CCN)C(=O)N(C)[C@@H]1C(=O)N[C@@H](C)C(=O)N[C@H](C(=O)NCC#N)Cc2ccc(OCCN)c(c2)-c2cc1ccc2OCCN
0.68

State its IC50: CCCCCCCOc1cc(C)c(C(=O)N[C@@H](CCN)C(=O)N(C)[C@@H]2C(=O)N[C@@H](C)C(=O)N[C@H](C(=O)NCC#N)Cc3ccc(OCCN)c(c3)-c3cc2ccc3OCCN)c(Cl)c1
1.1

State its IC50: CCCCCCCS(=O)(=O)c1ccc(C(=O)N[C@@H](CCN)C(=O)N(C)[C@@H]2C(=O)N[C@@H](C)C(=O)N[C@H](C(=O)NCC#N)Cc3ccc(OCCN)c(c3)-c3cc2ccc3OCCN)c(C)c1
1.1

* * *

- TARGET OF ASSAY: SpsB (Staphylococcus aureus signal peptidase) (Staphylococcus aureus, UniProt P0A070)
- Construct: This assay uses a suspension of Staphylococcus aureus cells as a source of SpsB instead of recombinant SpsB protein; endogenous in cells; host or cells: S. aureus, USA300 background, overexpressing SpsB (whole-cell suspension from frozen pellets)
- PROCEDURE TEXT: cell-based
- Format: biochemical
- STATED CONDITIONS: SpsB IC50, whole-cell S. aureus (USA300 background, overexpressing SpsB) as SpsB source; fluorogenic peptide substrate, kinetic read 30 min
- Description: A kinetic fluorogenic enzyme activity assay was used to assess inhibition of SpsB (Staphylococcus aureus signal peptidase) activity and IC50s were determined. This assay uses a suspension of Staphylococcus aureus cells as a source of SpsB instead of recombinant SpsB protein. Cell preparation: Luria broth (LB) was inoculated with S. aureus (USA300 background, overexpressing SpsB) and shaken at 37° C. until an OD600 nm of 1.5-2.0 was reached (˜4 hr). […]
PROPERTY MEASURED: IC50 (nM)
The answer is to be given in nM; state only the numeric part.

Give measured IC50 for CCCCCCCCc1nc(C)c(C(=O)N[C@@H](CCN)C(=O)N(C)[C@@H]2C(=O)N[C@@H](C)C(=O)N[C@H](C(=O)NCC#N)Cc3ccc(OCCN)c(c3)-c3cc2ccc3OCCN)s1 (SpsB (Staphylococcus aureus signal peptidase) (Staphylococcus aureus, UniProt P0A070)).
0.64

Give measured IC50 for CCCCCCCOc1ccc(C(=O)N[C@@H](CCN)C(=O)N(C)[C@@H]2C(=O)N[C@@H](C)C(=O)N[C@H](C(=O)NCC#N)Cc3ccc(OCCN)c(c3)-c3cc2ccc3OCCN)c2ccccc12 (SpsB (Staphylococcus aureus signal peptidase) (Staphylococcus aureus, UniProt P0A070)).
0.69

Give measured IC50 for Cc1cc(CC(C)(C)C)ccc1C(=O)N[C@@H](CCN)C(=O)N(C)[C@@H]1C(=O)N[C@@H](C)C(=O)N[C@H](C(=O)NCC#N)Cc2ccc(OCCN)c(c2)-c2cc1ccc2OCCN (SpsB (Staphylococcus aureus signal peptidase) (Staphylococcus aureus, UniProt P0A070)).
1.9

Give measured IC50 for CCCCCCCCCCCCCC(=O)N(C)[C@@H]1C(=O)N[C@@H](C)C(=O)N[C@H](C(=O)NCC#N)Cc2ccc(OCCN)c(c2)-c2cc1ccc2OCCN (SpsB (Staphylococcus aureus signal peptidase) (Staphylococcus aureus, UniProt P0A070)).
18

Give measured IC50 for C[C@@H]1NC(=O)[C@@H](N(C)C(=O)[C@H](CO)NC(=O)c2ccc(-c3ccc(Cl)cc3)cc2)c2ccc(OCCN)c(c2)-c2cc(ccc2OCCN)C[C@@H](C(=O)NCC#N)NC1=O (SpsB (Staphylococcus aureus signal peptidase) (Staphylococcus aureus, UniProt P0A070)).
4

Give measured IC50 for Cc1cc(OCCC(C)C)ccc1C(=O)N[C@@H](CCN)C(=O)N(C)[C@@H]1C(=O)N[C@@H](C)C(=O)N[C@H](C(=O)NCC#N)Cc2ccc(OCCN)c(c2)-c2cc1ccc2OCCN (SpsB (Staphylococcus aureus signal peptidase) (Staphylococcus aureus, UniProt P0A070)).
0.79

Give measured IC50 for CCCCc1cc(C)c(C(=O)N[C@@H](CCCN)C(=O)N(C)[C@@H]2C(=O)N[C@@H](C)C(=O)N[C@H](C(=O)NCC#N)Cc3ccc(OCCN)c(c3)-c3cc2ccc3OCCN)c(C)c1 (SpsB (Staphylococcus aureus signal peptidase) (Staphylococcus aureus, UniProt P0A070)).
1.3
